- TGT: PSMA on LNCaP cells (Homo sapiens, UniProt Q04609)
- Sequence (Q04609 whole entry): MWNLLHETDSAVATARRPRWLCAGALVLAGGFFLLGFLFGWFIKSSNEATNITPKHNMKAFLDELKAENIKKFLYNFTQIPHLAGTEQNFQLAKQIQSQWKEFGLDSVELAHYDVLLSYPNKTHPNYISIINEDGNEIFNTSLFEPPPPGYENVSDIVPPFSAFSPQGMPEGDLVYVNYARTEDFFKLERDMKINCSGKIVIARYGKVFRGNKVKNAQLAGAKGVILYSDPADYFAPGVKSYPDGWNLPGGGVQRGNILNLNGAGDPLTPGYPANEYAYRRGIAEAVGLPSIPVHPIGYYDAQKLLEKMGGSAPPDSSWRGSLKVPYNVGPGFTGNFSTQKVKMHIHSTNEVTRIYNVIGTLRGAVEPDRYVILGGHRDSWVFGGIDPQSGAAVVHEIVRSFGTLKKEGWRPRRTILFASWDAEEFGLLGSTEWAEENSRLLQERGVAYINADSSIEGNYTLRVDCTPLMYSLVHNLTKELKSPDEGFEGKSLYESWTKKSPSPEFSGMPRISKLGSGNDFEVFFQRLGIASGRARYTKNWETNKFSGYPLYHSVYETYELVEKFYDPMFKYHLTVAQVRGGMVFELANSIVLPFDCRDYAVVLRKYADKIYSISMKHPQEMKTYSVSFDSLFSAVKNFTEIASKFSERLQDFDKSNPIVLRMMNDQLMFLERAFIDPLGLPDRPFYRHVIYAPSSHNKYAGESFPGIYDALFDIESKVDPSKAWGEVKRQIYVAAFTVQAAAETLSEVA
- METHOD DESCRIPTION: Multi-concentration competitive binding assay against 99mTc-MIP-1427 (Section 1.3)
- Design: host or cells: LNCaP
- EXPERIMENTAL CONDITIONS: non-labeled, metal-free ligands; competitive binding in LNCaP cells vs 1 nM 99mTc-MIP-1427, 2 h; read-out: IC50
pIC50: −log10 of the molar value.
This listing pairs compounds with measured pIC50.
METRIC NAME: pIC50

- O=C(O)CC[C@H](NC(=O)N[C@@H](CCCCNC(=O)Nc1cccc(-c2cn(CCOCCOCCOCCOCCC(=O)N[C@@H](CCCCNC(=S)Nc3ccc(CC4CN(CC(=O)O)CCN(CC(=O)O)CCN(CC(=O)O)CCN4CC(=O)O)cc3)C(=O)N[C@@H](CCCCNC(=O)Cc3ccc(I)cc3)C(=O)O)nn2)c1)C(=O)O)C(=O)O (some centres unmarked) [RPS-061]: 8.39
- O=C(O)CC[C@H](NC(=O)N[C@@H](CCCCNC(=O)Nc1cccc(-c2cnnn2CC(=O)N[C@@H](CCCCNC(=S)Nc2ccc(CC3CN(CC(=O)O)CCN(CC(=O)O)CCN(CC(=O)O)CCN3CC(=O)O)cc2)C(=O)N[C@@H](CCCCNC(=O)Cc2ccc(I)cc2)C(=O)O)c1)C(=O)O)C(=O)O (some centres unmarked) [RPS-068]: 8.68
- O=C(O)CC[C@H](NC(=O)N[C@@H](CCCCNC(=O)Nc1cccc(-c2cn(CCOCCOCCOCCOCCOCCOCCOCCOCCC(=O)N[C@@H](CCCCNC(=S)Nc3ccc(CC4CN(CC(=O)O)CCN(CC(=O)O)CCN(CC(=O)O)CCN4CC(=O)O)cc3)C(=O)N[C@@H](CCCCNC(=O)Cc3ccc(I)cc3)C(=O)O)nn2)c1)C(=O)O)C(=O)O (some centres unmarked) [RPS-066]: 8.28
- O=C(O)CCC(NC(=O)NC(CCCCNC(=O)C(Cc1ccc2ccccc2c1)NC(=O)C1CCC(CNC(=O)CN2CCN(CC(=O)O)CCN(CC(=O)O)CCN(CC(=O)O)CC2)CC1)C(=O)O)C(=O)O (centres unmarked) [PSMA-617, reference compound]: 8.18
- O=C(O)CC[C@H](NC(=O)N[C@@H](CCCCNC(=O)Nc1cccc(-c2cn(CCOCCOCCOCCOCCOCCOCCC(=O)N[C@@H](CCCCNC(=S)Nc3ccc(CC4CN(CC(=O)O)CCN(CC(=O)O)CCN(CC(=O)O)CCN4CC(=O)O)cc3)C(=O)N[C@@H](CCCCNC(=O)Cc3ccc(I)cc3)C(=O)O)nn2)c1)C(=O)O)C(=O)O (some centres unmarked) [RPS-069]: 8.42
